Source: ChEMBL document CHEMBL1157707

Property: solubility; scope: individual compounds
assay: Solubility at pH 7.4; assay type: physicochemical; conditions: buffer
Value expressed in µg/mL; do not type the unit.

Below, each entry is followed by its recorded solubility result.
• CCn1nnc2c(N3CCOCC3)nc(-c3ccc(NC(=O)Nc4ccc(C(=O)NCCN5CCN(C)CC5)cc4)cc3)nc21 = 1
• CCn1nnc2c(N3CCOCC3)nc(-c3ccc(NC(=O)Nc4ccncc4)cc3)nc21 = 18
• CCn1nnc2c(N3CCOCC3)nc(-c3ccc(NC(=O)Nc4ccnc(C)c4)cc3)nc21 = 3
• CCn1nnc2c(N3CCOCC3)nc(-c3ccc(NC(=O)Nc4ccc(C(=O)N(C)C)cc4)cc3)nc21 = 1
• O=C(Nc1ccc(-c2nc(N3CCOCC3)c3nnn(C4CC4)c3n2)cc1)Nc1cccnc1 = 1
• Cn1nnc2c(N3CCOCC3)nc(-c3ccc(NC(=O)Nc4cccnc4)cc3)nc21 = 1
• CCn1nnc2c(N3CCOCC3)nc(-c3ccc(NC(=O)Nc4ccc(C(=O)NCCCN(C)C)cc4)cc3)nc21 = 100
• CCn1nnc2c(N3CCOCC3)nc(-c3ccc(NC(=O)Nc4ccc(C(=O)NCCc5ccccn5)cc4)cc3)nc21 = 1

**Query** solubility for `Cn1nnc2c(N3CCOCC3)nc(-c3ccc(NC(=O)Nc4cccs4)cc3)nc21` ?
**Result** 2

**Query** Query: solubility; subject: `CCn1nnc2c(N3CCOCC3)nc(-c3ccc(NC(=O)Nc4cccs4)cc3)nc21`
**Result** 1

**Query** // lookup solubility for `CC(C)n1nnc2c(N3CCOCC3)nc(-c3ccc(NC(=O)Nc4cccnc4)cc3)nc21`
**Result** 1

**Query** # get_value(readout='solubility', item= `CCn1nnc2c(N3CCOCC3)nc(-c3ccc(NC(=O)Nc4ccc(C(N)=O)cc4)cc3)nc21` )
**Result** 6

**Query** Would you kindly share the measured solubility for `CC(C)n1nnc2c(N3CCOCC3)nc(-c3ccc(NC(=O)Nc4ccc(N5CCOCC5)cc4)cc3)nc21` ?
**Result** 1

**Query** Which value of solubility has been reported for `CCNC(=O)c1ccc(NC(=O)Nc2ccc(-c3nc(N4CCOCC4)c4nnn(CC)c4n3)cc2)cc1` in the records?
**Result** 1

---

target: Serine/threonine-protein kinase mTOR (Homo sapiens); experiment: Inhibition of mTOR by DELFIA
Rule: measured IC50 below 0.6 nM gets met; anything equal to or greater than 0.6 nM gets not met.

Below, 5 molecules whose answers are already recorded.
- CC(C)n1nnc2c(N3CCOCC3)nc(-c3ccc(NC(=O)Nc4ccncc4)cc3)nc21: met
- CCn1nnc2c(N3CCOCC3)nc(-c3ccc(NC(=O)Nc4cccs4)cc3)nc21: not met
- CCn1nnc2c(N3CCOCC3)nc(-c3ccc(NC(=O)Nc4ccc(C(=O)NCCCN(C)C)cc4)cc3)nc21: not met
- Cn1nnc2c(N3CCOCC3)nc(-c3ccc(NC(=O)Nc4cccs4)cc3)nc21: not met
- CC(C)n1nnc2c(N3CCOCC3)nc(-c3ccc(NC(=O)Nc4ccc(C(N)=O)cc4)cc3)nc21: met

**Query** is_below(IC50, 0.6 nM) for `O=C(Nc1ccc(-c2nc(N3CCOCC3)c3nnn(C4CC4)c3n2)cc1)Nc1cccnc1` ?
**Result** met

**Query** Say whether its IC50 is strictly beneath 0.6 nM. Entry: `OCc1cccc(-c2nc(N3CCOCC3)c3ncn(C4CCN(Cc5ccccc5)CC4)c3n2)c1`
**Result** not met

**Query** Please check: IC50 for `CC(C)n1nnc2c(N3CCOCC3)nc(-c3ccc(NC(=O)Nc4ccc(N5CCOCC5)cc4)cc3)nc21` , strictly under 0.6 nM or not?
**Result** met

**Query** Does the reported IC50 of `CC(C)n1nnc2c(N3CCOCC3)nc(-c3ccc(NC(=O)Nc4cccnc4)cc3)nc21` stay below 0.6 nM?
**Result** met
